experimentNotes: in vitro
assayContext: rat, gh3-tre-luc cells, AC50 (uM) modified / 1000, Tox21_110001=Tox21_200355; viability, 1 nM T3 present, 24 h
quantity: CC50 at 24 h

# compound CCBr [Bromoethane] ; its CC50 at 24 h = > 90 µM

----------
experimentNotes: in vitro
assayContext: rat, gh3-tre-luc cells, AC50 (uM) modified / 1000, Tox21_110001=Tox21_111708; viability, 1 nM T3 present, 24 h
quantity: CC50 at 24 h

# molecule "OC[C@@H](O)[C@H]1O[C@@H]2O[C@H](C(Cl)(Cl)Cl)O[C@@H]2[C@H]1O" ; its CC50 at 24 h = > 50 µM
